// shrunken log2 fold change lookup, one value per entry
# Tested on: Escherichia coli TOP10;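 note: peptides expressed intracellularly from a pBAD plasmid library in pooled LB shake-flask culture, induced with 0.3% L-arabinose, DNA abundance read by NGS, three biological replicates, DESeq2 with apeglm shrinkage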
# test-name: shrunken log2 fold change of peptide-encoding DNA abundance (4.5 h post-induction vs induction); higher = less antimicrobial activity (less host growth inhibition)
# particulars: time post-induction: 4.5 h; library: site-saturation at positions 5, 18, 19, 20
No unit in the answer, please; the number alone is enough.

Worked examples, 3 sequences total:
residue-string	shrunken log2 fold change
RRIRERPPRLPRPRPRPYKDPRP	-0.157
RRIRHRPPRLPRPRPRPNENPRP	-0.579
RRIRGRPPRLPRPRPRPDYGPRP	0.0184

Let us examine a further case.
What the record says about `RRIRERPPRLPRPRPRPQIFPRP` : shrunken log2 fold change is -0.0392
